# ASSAY_INFO: refractive index (Na D-line) (dimensionless)
# REPORTED_CONDITIONS: 303.15 K; 101.33 kPa; Liquid
ASSAY_ENDPOINT: refractive index
The reply should be a number, written without any unit.

Previously resolved entries follow.
Query string: # get_value(readout='refractive index', item= C1COCCO1 )
Result string: 1.417

Query string: Quick one: CCOC(=O)c1ccccc1C(=O)OCC [diethyl phthalate]
Result string: 1.4978

Query string: Query CCOC(=O)CC(C)=O [ethyl 3-oxobutanoate] next
Result string: 1.4145

Query string: CCCCCCCCOC(=O)c1ccccc1C(=O)OCCCCCCCC [dioctyl 1,2-benzenedicarboxylate] , same question.
Result string: 1.4831

Next:
Query string: Query (compound): CCOC(=O)C(=O)OCC [diethyl ethanedioate] ; field requested: refractive index
Result string: 1.406
